Target: E. coli RNase P holoenzyme (M1 P RNA + rnpA protein)
Sequence: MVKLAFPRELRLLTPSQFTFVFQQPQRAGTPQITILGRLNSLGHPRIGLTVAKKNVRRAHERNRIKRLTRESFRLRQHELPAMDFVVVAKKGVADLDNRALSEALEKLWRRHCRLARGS
Assay: relative kcat/Km (krel) vs genomic leader AAAGAU (relative (reference leader = 1)); higher = faster RNase P cleavage
Settings: fraction of substrate reacted: ~9-10% (9.79% repeat 1, 9.1% repeat 2)
Whole data set: some 4,100 sequences, median “relative kcat/Km (krel) vs genomic leader AAAGAU” near 1.7, cut for the highest 2% near 6.5. The list comes from a sample in which the highest values are over-represented; it also holds close analogues and randomly drawn sequences.
measured-attribute: relative kcat/Km

[[record]]
query_sequence = "TGTTCT"
measured_attribute = "relative kcat/Km"
measured_value = 1.99

[[record]]
query_sequence = "TTAAGA"
measured_attribute = "relative kcat/Km"
measured_value = 1.95

[[record]]
query_sequence = "CGTTAG"
measured_attribute = "relative kcat/Km"
measured_value = 2.87

[[record]]
query_sequence = "TCCCTA"
measured_attribute = "relative kcat/Km"
measured_value = 3.22

[[record]]
query_sequence = "GTCTGA"
measured_attribute = "relative kcat/Km"
measured_value = 3.86

[[record]]
query_sequence = "CGTTAA"
measured_attribute = "relative kcat/Km"
measured_value = 3.62

[[record]]
query_sequence = "AATTAC"
measured_attribute = "relative kcat/Km"
measured_value = 3.5

[[record]]
query_sequence = "TCGCAA"
measured_attribute = "relative kcat/Km"
measured_value = 2.14

[[record]]
query_sequence = "CGCTAC"
measured_attribute = "relative kcat/Km"
measured_value = 3.79

[[record]]
query_sequence = "CGCTGA"
measured_attribute = "relative kcat/Km"
measured_value = 1.89

[[record]]
query_sequence = "CAGTGA"
measured_attribute = "relative kcat/Km"
measured_value = 1.48

[[record]]
query_sequence = "ACCGGC"
measured_attribute = "relative kcat/Km"
measured_value = 1.08

[[record]]
query_sequence = "CCCCGC"
measured_attribute = "relative kcat/Km"
measured_value = 2.14

[[record]]
query_sequence = "CCGCCT"
measured_attribute = "relative kcat/Km"
measured_value = 1.45

[[record]]
query_sequence = "TGGAAA"
measured_attribute = "relative kcat/Km"
measured_value = 1.63

[[record]]
query_sequence = "CTCTGA"
measured_attribute = "relative kcat/Km"
measured_value = 4.13

[[record]]
query_sequence = "TACCAC"
measured_attribute = "relative kcat/Km"
measured_value = 3.48

[[record]]
query_sequence = "GGTTAC"
measured_attribute = "relative kcat/Km"
measured_value = 0.591

[[record]]
query_sequence = "TATTAT"
measured_attribute = "relative kcat/Km"
measured_value = 4.02

[[record]]
query_sequence = "CGCTAG"
measured_attribute = "relative kcat/Km"
measured_value = 2.34

[[record]]
query_sequence = "TACCAG"
measured_attribute = "relative kcat/Km"
measured_value = 2.73

[[record]]
query_sequence = "TAATCT"
measured_attribute = "relative kcat/Km"
measured_value = 1.87

[[record]]
query_sequence = "CTAGTA"
measured_attribute = "relative kcat/Km"
measured_value = 1.32

[[record]]
query_sequence = "TATTCC"
measured_attribute = "relative kcat/Km"
measured_value = 2.05

[[record]]
query_sequence = "AGCAGC"
measured_attribute = "relative kcat/Km"
measured_value = 2.23

[[record]]
query_sequence = "ATCCCG"
measured_attribute = "relative kcat/Km"
measured_value = 1.67

[[record]]
query_sequence = "CCCCGA"
measured_attribute = "relative kcat/Km"
measured_value = 3.63

[[record]]
query_sequence = "ACCGTA"
measured_attribute = "relative kcat/Km"
measured_value = 2.19

[[record]]
query_sequence = "TCAGCT"
measured_attribute = "relative kcat/Km"
measured_value = 1.54

[[record]]
query_sequence = "GGTTAT"
measured_attribute = "relative kcat/Km"
measured_value = 0.926

[[record]]
query_sequence = "TGTTAT"
measured_attribute = "relative kcat/Km"
measured_value = 3.17

[[record]]
query_sequence = "GGATGC"
measured_attribute = "relative kcat/Km"
measured_value = 1.44

[[record]]
query_sequence = "CACTAT"
measured_attribute = "relative kcat/Km"
measured_value = 4.78

